// data source = patent US20220409578A1

Test system: TNFα
MEASUREMENT_NOTES: TNFα release from UV-B irradiated human epidermal keratinocytes (ELISA)
Assay type: cell-based
CONDITION_SET: Keratinocyte, light or radiation study, UV-B 25 mJ/cm^2 (280-312 nm), read-out: IC50 of TNFα inhibition
MEASURED_METRIC: IC50 (nM)
Supply the numeric figure in nM, leaving out any unit text.

Req: Consider the compound C=C(C)[C@@H]1CCC(C)=C[C@H]1c1c(O)cc(CC2CN(C(=O)OCC)C2)cc1O [KLS-13022] and give its recorded IC50.
Resp: 380
